Target: endogenous TRPV3 channels in mouse keratinocytes (Mus musculus)
Construct: endogenous in cells
Assay: Whole-cell recording of 2-APB-evoked TRPV3 currents in primary mouse epidermal keratinocytes
Conditions: 300 μM 2-APB-evoked; read-out: IC50 on TRPV3 currents in cultured keratinocytes

>  <molecule>
CCCCOc1ccc(C(=O)CCN2CCCCC2)cc1 [dyclonine]

>  <endpointUnit>
µM

>  <IC50>
5.2

$$$$

---

Target: human TRPV3 (hTRPV3) (Homo sapiens)
Sequence (Q8NET8 whole entry): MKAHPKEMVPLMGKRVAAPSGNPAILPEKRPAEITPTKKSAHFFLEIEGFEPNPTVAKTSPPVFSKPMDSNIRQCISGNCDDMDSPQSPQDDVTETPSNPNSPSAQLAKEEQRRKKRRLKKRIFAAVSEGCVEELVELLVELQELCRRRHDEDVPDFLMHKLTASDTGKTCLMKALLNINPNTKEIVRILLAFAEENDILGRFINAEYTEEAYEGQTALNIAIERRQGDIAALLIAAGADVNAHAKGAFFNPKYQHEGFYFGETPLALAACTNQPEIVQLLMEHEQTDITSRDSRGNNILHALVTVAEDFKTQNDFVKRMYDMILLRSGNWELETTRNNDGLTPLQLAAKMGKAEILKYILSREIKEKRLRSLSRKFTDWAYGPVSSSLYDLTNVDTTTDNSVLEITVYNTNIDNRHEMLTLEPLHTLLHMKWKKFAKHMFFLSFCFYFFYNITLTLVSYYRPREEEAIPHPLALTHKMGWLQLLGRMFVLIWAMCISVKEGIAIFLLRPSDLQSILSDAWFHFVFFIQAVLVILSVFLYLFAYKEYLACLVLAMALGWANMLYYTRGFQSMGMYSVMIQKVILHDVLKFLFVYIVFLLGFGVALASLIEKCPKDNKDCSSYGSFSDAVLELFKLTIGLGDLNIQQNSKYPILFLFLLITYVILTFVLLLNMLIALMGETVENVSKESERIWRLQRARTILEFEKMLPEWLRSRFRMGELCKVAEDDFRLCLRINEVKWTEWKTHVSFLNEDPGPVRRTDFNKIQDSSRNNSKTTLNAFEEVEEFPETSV
Test: Whole-cell recording of 2-APB-evoked currents in hTRPV3-expressing HEK 293T cells
Settings: 2-APB (100 μM)-evoked; –60 mV; read-out: IC50 on blocking of hTRPV3
pIC50: −log10 of the molar value.

>  <molecule>
CCCCOc1ccc(C(=O)CCN2CCCCC2)cc1 [dyclonine]

>  <pIC50>
4.79

$$$$

---

Target: TRPV3 L655A (Mus musculus, UniProt Q8K424, L655A)
Test: Whole-cell recording of TRPV3 mutant L655A in HEK 293T cells
Conditions: 2-APB (1 mM)-evoked, –60 mV, read-out: IC50 for inhibition of TRPV3 mutant

>  <testSmiles>
CCCCOc1ccc(C(=O)CCN2CCCCC2)cc1

>  <IC50 / µM>
287

$$$$

---

Target: TRPV3 I644W (Mus musculus, UniProt Q8K424, I644W)
Construct: expressed in transfected cells; host or cells: HEK 293T
Assay: Whole-cell recording of TRPV3 mutant I644W in HEK 293T cells
Format: cell-based
Conditions: 2-APB (1 mM)-evoked, –60 mV, read-out: IC50 for inhibition of TRPV3 mutant
Method: The WT mouse TRPV3 (mTRPV3), human TRPV3 (hTRPV3), rat TRPV1, rat TRPV2, rat TRPM8, and mouse TRPA1 cDNAs were generously provided by Dr. Feng Qin (State University of New York at Buffalo, Buffalo, USA). […] Conventional whole-cell and excised patch-clamp recording methods were used. […] As determined by the conductance tests, the solution around a patch under study was fully controlled by the application of a flow rate of 100 μl/min or greater. […]

>  <molecule>
CCCCOc1ccc(C(=O)CCN2CCCCC2)cc1 [dyclonine]

>  <IC50>
26.1 µM

$$$$

---

Molecular target: mouse TRPV3 (Mus musculus, UniProt Q8K424)
Sequence (Q8K424 1-791): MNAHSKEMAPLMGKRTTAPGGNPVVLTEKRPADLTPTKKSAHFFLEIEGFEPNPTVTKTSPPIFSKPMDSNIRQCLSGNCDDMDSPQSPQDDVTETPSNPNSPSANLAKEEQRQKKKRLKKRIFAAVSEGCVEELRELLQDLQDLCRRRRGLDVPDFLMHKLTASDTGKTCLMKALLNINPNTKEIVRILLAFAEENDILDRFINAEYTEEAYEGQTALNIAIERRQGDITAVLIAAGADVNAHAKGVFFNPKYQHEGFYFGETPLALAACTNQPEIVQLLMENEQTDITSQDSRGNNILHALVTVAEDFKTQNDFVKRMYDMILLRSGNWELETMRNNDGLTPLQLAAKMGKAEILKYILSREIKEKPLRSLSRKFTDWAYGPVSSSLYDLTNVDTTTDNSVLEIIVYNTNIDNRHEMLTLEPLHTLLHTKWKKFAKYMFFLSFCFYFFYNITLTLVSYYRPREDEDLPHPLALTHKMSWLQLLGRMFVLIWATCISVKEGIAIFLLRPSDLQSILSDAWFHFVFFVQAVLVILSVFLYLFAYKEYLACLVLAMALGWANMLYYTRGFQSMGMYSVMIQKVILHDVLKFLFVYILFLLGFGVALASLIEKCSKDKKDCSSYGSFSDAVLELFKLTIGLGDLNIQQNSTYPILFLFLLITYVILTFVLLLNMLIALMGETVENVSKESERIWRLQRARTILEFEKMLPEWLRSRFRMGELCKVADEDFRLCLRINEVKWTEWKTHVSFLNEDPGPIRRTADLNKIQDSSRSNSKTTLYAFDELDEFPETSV
Assay: cell-based
Conditions: EC50 of 2-APB for TRPV3 activation, with 3 μM dyclonine

>  <compound>
NCCOB(c1ccccc1)c1ccccc1 [2-APB, 2-aminoethoxydiphenyl borate]

>  <endpointUnit>
µM

>  <EC50>
22

$$$$

---

Molecular target: UniProt:Q8K424
Assay: cell-based
Conditions: EC50 of 2-APB for TRPV3 activation, without dyclonine; after full sensitization
measureName: EC50 (µM)

>  <molecule>
NCCOB(c1ccccc1)c1ccccc1 [2-APB, 2-aminoethoxydiphenyl borate]

>  <endpointUnit>
µM

>  <readoutNumber>
22.9

$$$$

---

Biological target: frog TRPV3 (fTRPV3) (Xenopus tropicalis)
Sequence (F6UZP3 entry or part of it): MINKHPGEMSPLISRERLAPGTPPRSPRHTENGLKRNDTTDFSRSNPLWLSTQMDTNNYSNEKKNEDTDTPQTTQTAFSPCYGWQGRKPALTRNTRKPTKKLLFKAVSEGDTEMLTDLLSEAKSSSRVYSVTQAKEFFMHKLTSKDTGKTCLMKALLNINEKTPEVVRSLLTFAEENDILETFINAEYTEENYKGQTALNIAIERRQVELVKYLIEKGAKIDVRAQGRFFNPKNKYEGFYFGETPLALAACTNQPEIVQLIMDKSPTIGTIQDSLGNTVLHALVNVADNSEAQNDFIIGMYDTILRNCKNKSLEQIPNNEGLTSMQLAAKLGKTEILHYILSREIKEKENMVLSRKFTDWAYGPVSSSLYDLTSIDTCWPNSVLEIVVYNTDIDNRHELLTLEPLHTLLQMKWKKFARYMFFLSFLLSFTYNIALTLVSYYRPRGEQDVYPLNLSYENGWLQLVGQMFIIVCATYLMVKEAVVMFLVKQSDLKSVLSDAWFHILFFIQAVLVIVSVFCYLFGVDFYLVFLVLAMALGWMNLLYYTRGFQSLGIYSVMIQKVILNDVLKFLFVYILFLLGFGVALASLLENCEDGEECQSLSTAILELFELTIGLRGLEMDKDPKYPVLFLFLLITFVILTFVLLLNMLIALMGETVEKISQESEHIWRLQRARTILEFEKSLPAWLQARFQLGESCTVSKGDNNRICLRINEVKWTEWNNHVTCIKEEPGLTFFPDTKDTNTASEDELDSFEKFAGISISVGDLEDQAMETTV
Assay: Whole-cell recording of 2-APB-evoked currents in fTRPV3-expressing HEK 293T cells
Details: 3 mM 2-APB-evoked; –60 mV; read-out: IC50 on inhibition of fTRPV3 currents
measureName: IC50 (µM)

>  <compound>
CCCCOc1ccc(C(=O)CCN2CCCCC2)cc1 [dyclonine]

>  <readoutNumber>
12.3

$$$$

---

Biological target: TRPV3 I637A (Mus musculus, UniProt Q8K424, I637A)
Sequence (Q8K424 1-791 I637A): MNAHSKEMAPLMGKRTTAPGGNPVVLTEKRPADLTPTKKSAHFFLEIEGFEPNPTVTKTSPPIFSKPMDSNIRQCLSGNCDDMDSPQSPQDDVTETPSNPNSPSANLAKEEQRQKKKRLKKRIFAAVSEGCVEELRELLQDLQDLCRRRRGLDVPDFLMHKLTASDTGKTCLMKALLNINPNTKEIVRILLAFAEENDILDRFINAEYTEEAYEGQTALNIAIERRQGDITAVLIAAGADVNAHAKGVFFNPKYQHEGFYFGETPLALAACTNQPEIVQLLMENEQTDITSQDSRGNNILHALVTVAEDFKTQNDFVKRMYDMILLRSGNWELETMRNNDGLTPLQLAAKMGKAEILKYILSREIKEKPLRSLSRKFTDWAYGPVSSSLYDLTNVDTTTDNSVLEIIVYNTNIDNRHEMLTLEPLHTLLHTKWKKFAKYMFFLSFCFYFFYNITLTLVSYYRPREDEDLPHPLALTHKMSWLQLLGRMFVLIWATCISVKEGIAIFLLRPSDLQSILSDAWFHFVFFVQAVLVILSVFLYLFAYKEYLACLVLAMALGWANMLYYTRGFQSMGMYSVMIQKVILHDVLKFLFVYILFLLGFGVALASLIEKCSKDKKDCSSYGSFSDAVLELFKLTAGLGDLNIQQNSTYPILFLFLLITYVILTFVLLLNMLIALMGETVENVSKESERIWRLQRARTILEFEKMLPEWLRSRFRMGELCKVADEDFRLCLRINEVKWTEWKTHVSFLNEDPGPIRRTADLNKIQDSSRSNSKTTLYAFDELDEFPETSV
Assay: Whole-cell recording of TRPV3 mutant I637A in HEK 293T cells
Details: 2-APB (1 mM)-evoked, –60 mV, read-out: IC50 for inhibition of TRPV3 mutant
pIC50: −log10 of the molar value.
measureName: pIC50

>  <testSmiles>
CCCCOc1ccc(C(=O)CCN2CCCCC2)cc1

>  <measureName>
pIC50

>  <readoutNumber>
5.21

$$$$

---

Biological target: TRPV3 (Mus musculus)
Assay: Whole-cell recording of carvacrol-evoked TRPV3 currents in HEK 293T cells
Settings: 500 μM carvacrol; after sensitization by 300 μM 2-APB; –60 mV; read-out: IC50 for inhibition of carvacrol-evoked TRPV3 currents
pIC50: −log10 of the molar value.

>  <testSmiles>
CCCCOc1ccc(C(=O)CCN2CCCCC2)cc1

>  <pIC50>
5.46

$$$$
